z-score listing for selected compounds.
- ASSAY_NAME: splicing luciferase reporter signal modulators, primary screen, spliceosome inhibition project, cell-based, HEK293, splice +/- reporter (AID 1101);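 note: HEK293 cells carrying a splicing-competent luciferase reporter gene; test concentration not given here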
- CONDITION_DESCRIPTION: luminescence, 24 h, higher = more signal, called active from +8 up or from −8 down
Output spec: single numeric token, no unit.

COMPOUND	RECORDED_RESULT
COC(=O)[C@]1(Cc2ccccc2CN=[N+]=[N-])N=C(c2ccc(OCCCO)cc2)O[C@@H]1c1ccccc1N=[N+]=[N-]	-0.346
C=C(/C=C\CNS(=O)(=O)c1ccc(C)cc1)[C@H](O)[C@H]1CCCN1S(=O)(=O)c1ccccc1[N+](=O)[O-]	-0.465
[N-]=[N+]=Nc1ccccc1C[C@]1(C(=O)N2CCCCC2)N=C(c2ccc(OCCCO)cc2)O[C@H]1c1ccccc1	-0.117
O=C1NC(=O)C2C1C=CC(C(O)C(O)CO)N2Nc1ccccn1 (configuration not stated)	-0.396
C=CCC(OC(C)=O)[C@@H]1[C@@H](N(Cc2ccc(-c3ccccc3)cc2)C(=O)Cc2ccc(OC)cc2)c2cc(OCCCO)ccc2N1C(=O)c1ccc2ccccc2c1 (some centres not stated)	-0.147
C=CC[C@H](OC(=O)Nc1ccc(SC)cc1)c1ccc(O)c(F)c1	-0.354
O=C1C2C=CC(C(O)C3CC=CCC3)N(Nc3ccc([N+](=O)[O-])cc3)C2C(=O)N1c1ccccc1 (configuration not stated)	0.809
O=C1O[C@H](c2ccccc2)[C@H](c2ccccc2)N2[C@H]1[C@@H](C(=O)N1CCCCCCC1)[C@]1(C(=O)Nc3ccc(C#CCCO)cc31)[C@H]2c1ccc(O)cc1	-0.547

Q: Fill in: z-score of "C[C@]1(C(=O)NCC(F)(F)F)c2ccccc2C(=O)N(Cc2cc(C(F)(F)F)cc(C(F)(F)F)c2)[C@H]1c1ccc(CO)cc1" is ___
A: 0.272

Q: Give the measured z-score of "COC(=O)C(CC#Cc1ccc2c(c1)[C@]1(C(=O)N2)[C@H](c2ccc(OCCO)cc2)N2[C@H](c3ccccc3)[C@H](c3ccccc3)OC(=O)[C@H]2[C@@H]1C(N)=O)C(=O)OC" .
A: 0.373

Q: Which z-score value is on record for "C=C1C(=O)C=C2CN(C(=O)c3ccccc3)[C@@](Cc3ccc(F)cc3)(C(=O)OC)[C@@H]12" ?
A: -0.756

Q: Please look up its z-score: "COc1ccc([Si](C)(C)[C@@H]2[C@@H](CC(=O)N(CCO)Cc3ccccc3)O[C@]3(C(=O)N(Cc4cccc(I)c4)c4ccccc43)[C@H]2C)cc1"
A: -0.847

Q: Can you share its z-score? I mean this compound: "COc1ccc(-c2cc3c(c(CCc4ccccc4)n2)[Si](C(C)C)(C(C)C)O[C@H]3c2ccccc2)cn1"
A: -0.879

Q: State the recorded z-score for this entry: "C[N+](C)(C)CCCC[C@@H]1NC(=O)[C@H]2C[C@@H](C(=O)O)[C@@H](c3ccc(O)cc3)N2C1=O"
A: -0.303

Q: For the compound COC(=O)c1ccc(OC)c(/C=C\CC(OC(=O)c2ccncc2)c2ccccc2)c1 (configuration not stated) , what z-score is on record?
A: -2.07

Q: Given the compound "COC(=O)[C@@]1(Cc2ccccc2)[C@H]2c3cc(C(=O)N(C)C)n(Cc4ccc(Cl)c(C(F)(F)F)c4)c3C[C@H]2CN1C(=O)c1ccccc1" , what is its reported z-score?
A: -1.45

* * *

This listing pairs compounds with measured composite z-score.
- TARGET_ENTITY: Concanavalin-A (Canavalia ensiformis)
- ASSAY_NAME: ConA small-molecule binders, primary screen, artefact control for SMM control protein annotation, biochemical, small-molecule microarray, Alexa647 label, 635 nm (AID 1127);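 note: z combines 667 nm emission intensity with signal-to-noise across three replicate slides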
- CONDITION_DESCRIPTION: ConA-A647 binding fluorescence, higher = more signal
Write the number on its own, no unit after it.

MOLECULE_SMILES	TARGET_ENTITY	composite z-score
C[C@]1(C(=O)O)c2ccccc2C(=O)N(Cc2cc(C(F)(F)F)cc(C(F)(F)F)c2)[C@H]1c1ccc(CO)cc1	Concanavalin-A (Canavalia ensiformis)	0.928
O=C(N1CCOCC1)[C@]1(CCS(=O)(=O)c2ccccc2)N=C(c2ccc(OCCCO)cc2)O[C@@H]1c1ccccc1	Concanavalin-A (Canavalia ensiformis)	1.21
COc1cc2c(cc1OC)CN(C(=O)[C@@H]1[C@H]3C(=O)O[C@H](c4ccccc4)[C@H](c4ccccc4)N3[C@H](c3ccc(O)cc3)[C@@]13C(=O)Nc1ccc(C#CC4=CCCCC4)cc13)CC2	Concanavalin-A (Canavalia ensiformis)	1.1

Lab note: next compound to report on.
Q: Query (compound): "COc1ccc([Si](C)(C)[C@@H]2[C@@H](CC(=O)N3Cc4ccccc4C[C@H]3CO)O[C@]3(C(=O)N(Cc4ccc(I)cc4)c4ccccc43)[C@H]2C)cc1" ; field requested: composite z-score
A: 0.957

* * *

- Tested on: wheat germ agglutinin (Triticum aestivum), Alexa647-labelled
- ASSAY_NAME: wheat germ agglutinin binders on compound microarrays, profiling panel, artefact control for SMM control-protein annotation, biochemical, small-molecule microarray, 635/667 nm fluorescence (AID 1140);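 note: score merges 667 nm feature emission with signal to noise over triplicate slides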
- CONDITION_DESCRIPTION: WGA-A647 binding, 635 nm fluorescence, higher = more signal
Respond with T for composite z-score values of 0.6 and above, F for values below.

Take a look at these entries with their results.
COMPOUND	ASSIGNED_CATEGORY
CN1C(=O)C2C=CC(C(O)c3ccc(I)cc3)N(N(c3ccccc3)c3ccccc3)C2C1=O (centres undefined)	F
COC(=O)[C@@]1(Cc2ccc(F)cc2)[C@H]2c3cc(C(=O)N4CCCC4)n(CCSCCO)c3C[C@H]2CN1C(=O)c1ccccc1	T
COCCOC(=O)N1C(=O)[C@@]2(c3cc(C#CC4(O)CCCCCC4)ccc31)[C@H](C(N)=O)[C@H]1C(=O)O[C@H](c3ccccc3)[C@H](c3ccccc3)N1[C@@H]2c1ccc(OCCO)cc1	T
COC(=O)[C@@]1(Cc2ccccc2)[C@H]2c3cc(C(=O)N(C)C)n(Cc4nc5ccccc5[nH]4)c3C[C@H]2CN1C(=O)c1ccccc1	T

Q: Is composite z-score at least 0.6? Consider "Cc1ccc(S[C@]2(C(=O)NCC(C)C)CC(=O)N(C(C)C)[C@@H]2c2ccc(CO)cc2I)cc1"
A: F

Q: Evaluate "Cc1c(NC(=O)/C(C#N)=C/C=C/c2ccc([N+](=O)[O-])cc2)c(=O)n(-c2ccccc2)n1C" : composite z-score at minimum 0.6?
A: T

Q: State whether the measured composite z-score reaches 0.6, counting equality as reaching it, for CCCCN1CC=CC23O[C@@H]4C=CCCOC(=O)C4[C@H]2C(=O)N(CCO)[C@@H]3C1=O (some centres undefined)
A: F

Q: Please indicate if the recorded composite z-score for "COCCOC(=O)N1C(=O)[C@@]2(c3cc(C#CCC(C(=O)OC)C(=O)OC)ccc31)[C@H](C(N)=O)[C@H]1C(=O)O[C@H](c3ccccc3)[C@H](c3ccccc3)N1[C@@H]2c1ccccc1OCCO" meets or exceeds 0.6.
A: F

Q: Is the recorded value of composite z-score equal to or greater than 0.6 for this compound? O=C1NC(=O)C2C1C=CC(C(O)c1ccc(F)cc1)N2Nc1ccc(Cl)cc1Cl (centres undefined)
A: F

* * *

- ASSAY_NAME: binders of probe aFGF10 on microarray, primary screen, stem cell growth factor project, biochemical, small-molecule microarray, fluorescence 635/667 (AID 1071);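 note: score merges 667 nm spot intensity and signal to noise from triplicate slides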
- CONDITION_DESCRIPTION: higher = more signal
Recorded composite z-score for the following compounds
API doc: respond with a numeric literal and nothing else, no unit.

Q: Suppose we examine the compound CS(=O)(=O)CCOC(=O)C1=CC(CCCO)=CC(C2CC2)N(Cc2sc3ccccc3c2Cl)C=C1C(=O)OCCS(C)(=O)=O (stereo not given) ; what composite z-score value has been reported?
A: 0.4

Q: Item under review: "Cc1c(NC(=O)/C(C#N)=C/C=C/c2ccc([N+](=O)[O-])cc2)c(=O)n(-c2ccccc2)n1C" . Reported composite z-score?
A: 0.906

* * *

- TARGET_ENTITY: Focal adhesion kinase 1 (Homo sapiens)
- ASSAY_NAME: small-molecule microarray binders of FAK, primary screen, biochemical, 635/667 nm fluorescence, BSA, DTT (AID 1130);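 note: composite of spot emission at 667 nm and signal to noise over triplicate slides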
- CONDITION_DESCRIPTION: PTK2 binding, 635 nm fluorescence, higher = more signal
Would you mind sorting the entries by composite z-score according to these classes? bin 1 = under 0.3, bin 2 = from 0.3 up to 0.5, bin 3 = 0.5 and over

MOLECULE	TARGET_ENTITY	ASSIGNED_CATEGORY
C=C(CC1([C@@H](NP(=O)(c2ccccc2)c2ccccc2)[C@H]2C[C@@H]2CCCC)CC1)c1cccc(OC)c1	Focal adhesion kinase 1 (Homo sapiens)	bin 3
CCCCCN1CC=CC23O[C@@H]4/C=C\CCCOC(=O)C4[C@H]2C(=O)N(CCO)[C@@H]3C1=O (stereo not given in full)	Focal adhesion kinase 1 (Homo sapiens)	bin 3
O=C1C2C=CC(C(O)c3ccccn3)N(Nc3ccc([N+](=O)[O-])cc3)C2C(=O)N1c1ccccc1 (stereo not given)	Focal adhesion kinase 1 (Homo sapiens)	bin 2
CC(C)c1ccc(NN2C(C(O)c3ccccc3)C=CC3C(=O)N(c4ccccc4)C(=O)C32)cc1 (stereo not given)	Focal adhesion kinase 1 (Homo sapiens)	bin 3
COc1cc(Cc2cc3c(c(-c4ccccc4)n2)[Si](C(C)C)(C(C)C)OC3)cc(OC)c1OC	Focal adhesion kinase 1 (Homo sapiens)	bin 1
COC(=O)[C@@]1(Cc2ccc(F)cc2)[C@H]2c3cc(C(=O)N(C)C)n(Cc4ccsc4Br)c3C[C@H]2CN1C(=O)c1ccccc1	Focal adhesion kinase 1 (Homo sapiens)	bin 3
COC(=O)[C@@]1(Cc2ccccc2)[C@H]2c3cc(C(=O)N(C)C)n(CCF)c3C[C@H]2CN1C(=O)c1ccccc1	Focal adhesion kinase 1 (Homo sapiens)	bin 2
[N-]=[N+]=NCc1ccccc1C[C@]1(C(=O)N2CCCCC2)COC(c2ccc(OCCCO)cc2)=N1	Focal adhesion kinase 1 (Homo sapiens)	bin 2
CC(C)C[C@@H]1NC(=O)[C@@H]2C[C@H](C(=O)NCCCCCNC(=O)CS)[C@H](c3ccc(O)cc3)N2C1=O	Focal adhesion kinase 1 (Homo sapiens)	bin 2
Cc1ccc(S[C@]2(C(=O)NC(C)C)CC(=O)N(Cc3ccccc3)[C@@H]2c2ccc(CO)cc2)cc1	Focal adhesion kinase 1 (Homo sapiens)	bin 1

Q: Band of "CC(C)[Si](C#Cc1ccccc1)(O[C@H](c1ccccc1)c1cn(Cc2ccccc2)nn1)C(C)C" ?
A: bin 1

Q: Band for CC1C2C(CCCO)=CC(C3C(=O)N(C)C(=O)C23)N1Cc1cccc(OC(F)(F)F)c1 (stereo not given) ?
A: bin 3

Q: Please classify: "C=C[C@H](C)[C@@H](OC(=O)Nc1ccc(SC)cc1)c1ccc(OCCO)cc1"
A: bin 2
